These data points were gathered from ChEMBL document CHEMBL3822422.

# PROTOCOL_NOTES: Clearance in rat at 1 mg/kg, iv
# Assay type: ADME, organism-based
# STUDY_CONDITIONS: in vivo
ENDPOINT: clearance (mL/min/kg)

>>> df
                                 mol_smiles  measured_value
0  C[C@@H](c1ccc2[nH]c(=O)sc2c1)c1ccn(-c2ccc(OCCO)cn2)n1            11.4

---

# PROTOCOL_NOTES: AUC in rat plasma at 30 mg/kg, po measured on day 1
# Format: ADME, organism-based
ENDPOINT: AUC (ng·h/mL)

In [3]: df
Out[3]:
                               mol_smiles     unit  measured_value
0  CN(c1ccc2[nH]ncc2c1)c1nc(-c2ccccn2)cs1  ng·h/mL           52300

---

# PROTOCOL_NOTES: AUC in rat at 1 mg/kg, iv
# Type: ADME, organism-based
# STUDY_CONDITIONS: in vivo
ENDPOINT: AUC (ng·h/mL)

                                 mol_smiles  endpoint  measured_value
0  C[C@@H](c1ccc2[nH]c(=O)sc2c1)c1ccn(-c2ccc(OCCO)cn2)n1       AUC            1470

---

# PROTOCOL_NOTES: Cmax in rat at 3 mg/kg, po
# Format: ADME, organism-based
# Set-up: dose 3 mg/kg, route oral
# STUDY_CONDITIONS: in vivo
ENDPOINT: Cmax

                                 mol_smiles  measured_value
0  C[C@@H](c1ccc2[nH]c(=O)sc2c1)c1ccn(-c2ccc(OCCO)cn2)n1       628 ng/mL

---

# TESTED_ON: Glutamate receptor 1 (Homo sapiens)
# Sequence (P42261 whole entry, canonical isoform): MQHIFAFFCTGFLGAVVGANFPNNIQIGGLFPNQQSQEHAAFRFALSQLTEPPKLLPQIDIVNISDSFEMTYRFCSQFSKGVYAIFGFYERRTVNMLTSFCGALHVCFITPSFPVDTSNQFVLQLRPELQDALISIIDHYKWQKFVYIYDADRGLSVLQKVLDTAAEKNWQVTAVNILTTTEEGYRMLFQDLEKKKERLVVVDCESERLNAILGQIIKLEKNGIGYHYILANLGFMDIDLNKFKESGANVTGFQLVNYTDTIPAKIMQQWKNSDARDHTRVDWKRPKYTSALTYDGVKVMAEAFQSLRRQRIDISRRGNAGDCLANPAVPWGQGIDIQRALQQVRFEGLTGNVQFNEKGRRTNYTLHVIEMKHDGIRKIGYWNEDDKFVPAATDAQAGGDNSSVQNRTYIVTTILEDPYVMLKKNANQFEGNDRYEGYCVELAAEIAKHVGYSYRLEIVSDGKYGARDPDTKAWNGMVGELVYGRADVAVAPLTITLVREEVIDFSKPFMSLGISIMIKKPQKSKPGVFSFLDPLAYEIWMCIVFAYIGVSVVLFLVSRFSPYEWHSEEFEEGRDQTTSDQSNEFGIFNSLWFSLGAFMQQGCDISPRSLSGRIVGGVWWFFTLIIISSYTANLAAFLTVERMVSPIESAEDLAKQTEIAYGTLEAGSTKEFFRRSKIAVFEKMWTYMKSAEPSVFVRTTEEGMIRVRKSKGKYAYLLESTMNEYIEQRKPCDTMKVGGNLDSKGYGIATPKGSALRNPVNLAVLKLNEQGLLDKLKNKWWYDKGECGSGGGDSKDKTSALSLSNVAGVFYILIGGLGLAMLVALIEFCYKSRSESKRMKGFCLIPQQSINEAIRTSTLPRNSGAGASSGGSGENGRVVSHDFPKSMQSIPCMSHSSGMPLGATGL
# PROTOCOL_NOTES: Antagonist activity at human iGluA1 receptor flop isoform expressed in CHO-S cells coexpressing TARP gamma-2 assessed as inhibition of glutamate-induced increase in intracellular calcium levels after 2 mins followed by cyclothiazide/glutamate addition by fluo-4 AM dye based fluorescence imaging plate reader method
# Type: cell-based
Catalogue of molecules with associated IC50
ENDPOINT: IC50 (µM)

                                    molecule                            tested_on  endpoint  result_qualifier  measured_value
 0  C[C@H](c1ccc2[nH]c(=O)sc2c1)c1ccn(-c2ccccn2)n1  Glutamate receptor 1 (Homo sapiens)      IC50                 =            83.3
 1         CN(c1ccc(O)cc1)c1nc(-c2ccccn2)cs1  Glutamate receptor 1 (Homo sapiens)      IC50                 >            83.3
 2    CN(c1ccc2[nH]ncc2c1)c1nc(-c2ccccn2)cs1  Glutamate receptor 1 (Homo sapiens)      IC50                 >            83.3
 3  N#Cc1ccccc1-c1cc(-c2ccccn2)cn(-c2ccccc2)c1=O  Glutamate receptor 1 (Homo sapiens)      IC50                 =           0.485
 4  CC(c1ccc2[nH]c(=O)sc2c1)c1ccn(-c2ccccn2)n1 (racemic)  Glutamate receptor 1 (Homo sapiens)      IC50                 =            83.3
 5  C[C@@H](c1ccc2[nH]c(=O)sc2c1)c1ccn(-c2ccc(OCCO)cn2)n1  Glutamate receptor 1 (Homo sapiens)      IC50                 =            68.5
 6  C[C@H](c1ccc2[nH]c(=O)sc2c1)c1ccn(-c2ccc(OCCO)cn2)n1  Glutamate receptor 1 (Homo sapiens)      IC50                 =            9.26
 7  C[C@@H](c1ccc2[nH]c(=O)sc2c1)c1ccn(-c2ccc(F)cn2)n1  Glutamate receptor 1 (Homo sapiens)      IC50                 =            83.3
 8    CN(c1ccc2[nH]ncc2c1)c1ccn(-c2ccccn2)n1  Glutamate receptor 1 (Homo sapiens)      IC50                 >            83.3
 9  C[C@@H](c1ccc2[nH]c(=O)sc2c1)c1ccn(-c2ccccn2)n1  Glutamate receptor 1 (Homo sapiens)      IC50                 =            83.3
10  Cn1ccc(CN(c2ccc3[nH]ncc3c2)c2nc(-c3ccccn3)cs2)n1  Glutamate receptor 1 (Homo sapiens)      IC50                 =            83.3
11  C[C@@H](c1ccc2[nH]c(=O)sc2c1)c1ccn(-c2ccc(CCO)cn2)n1  Glutamate receptor 1 (Homo sapiens)      IC50                 =            25.7
12  C[C@@H](c1ccc2[nH]c(=O)sc2c1)c1ccn(-c2ccc(CCC(C)(C)O)cn2)n1  Glutamate receptor 1 (Homo sapiens)      IC50                 =            9.26
13  C[C@H](c1ccc2[nH]c(=O)sc2c1)c1ccn(-c2ccc(CCO)cn2)n1  Glutamate receptor 1 (Homo sapiens)      IC50                 =            9.26
14  CN(c1ccc2[nH]c(=O)sc2c1)c1nc(-c2ccccn2)cs1  Glutamate receptor 1 (Homo sapiens)      IC50                 >            83.3
